In this section we review reported FICI minimum values for a set of molecules.
System: Saccharomyces cerevisiae ZIM 2255 (RPMI)
Experiment: FICI minimum (fractional inhibitory concentration index, Loewe) (dimensionless); higher = less synergy / more antagonism
Conditions: temperature: 37 °C

MOLECULE	FICI minimum
COc1c(C)c2c(c(O)c1C/C=C(\C)CCC(=O)O)C(=O)OC2 [mycophenolic acid] + OC(Cn1cncn1)(Cn1cncn1)c1ccc(F)cc1F [fluconazole]	2.5
CN(Cc1cnc2nc(N)nc(N)c2n1)c1ccc(C(=O)N[C@@H](CCC(=O)O)C(=O)O)cc1 [methotrexate] + C[C@@H]1[C@H](O)[C@@H](C)/C=C/C=C/C=C/C=C/C=C/C=C/C=C/[C@H](O[C@@H]2O[C@H](C)[C@@H](O)[C@H](N)[C@@H]2O)C[C@@H]2O[C@](O)(C[C@@H](O)C[C@@H](O)[C@H](O)CC[C@@H](O)C[C@@H](O)CC(=O)O[C@H]1C)C[C@H](O)[C@H]2C(=O)O [amphotericin B]	0.516
CN(Cc1cnc2nc(N)nc(N)c2n1)c1ccc(C(=O)N[C@@H](CCC(=O)O)C(=O)O)cc1 [methotrexate] + CCC(C)n1ncn(-c2ccc(N3CCN(c4ccc(OCC5COC(Cn6cncn6)(c6ccc(Cl)cc6Cl)O5)cc4)CC3)cc2)c1=O [itraconazole]	1
CC1(C)S[C@@H]2[C@H](NC(=O)[C@H](N)c3ccc(O)cc3)C(=O)N2[C@H]1C(=O)O [amoxicillin] + CCC(C)n1ncn(-c2ccc(N3CCN(c4ccc(OCC5COC(Cn6cncn6)(c6ccc(Cl)cc6Cl)O5)cc4)CC3)cc2)c1=O [itraconazole]	1.01
